Measured GI50 of individual entries
Test system: NCI-H460
test description: Growth inhibition of human NCI-H460 cells after 48 hrs by SRB assay
Format: functional
measurement parameters: NCI-H460, 48 h

# molecular string, GI50 [µM]
measured = [
    ("CNc1ncnc(N)c1N(C=O)C/C=C(\\C)CC[C@@]1(C)[C@H](C)CC[C@@]2(C)C(C)=CCC[C@H]12", 4.3),
    ("CC1=CCC[C@H](C)[C@@]1(C)CC/C(C)=C/CC/C(C)=C/Cn1c[n+](C)c2ncnc(N)c21.[Cl-]", 3.7),
    ("CNc1ncnc(N)c1N(C=O)C/C=C(\\C)CC[C@]1(C)[C@@H](C)CC[C@@]2(C)C(C)=CCC[C@@H]12", 4.6),
    ("CNc1ncnc(N)c1N(C=O)C/C=C(\\C)CC/C=C(\\C)CC[C@@]1(C)C(C)=CCC[C@@H]1C", 6.8),
    ("CNc1ncnc(NC(C)C)c1N(C=O)C/C=C(\\C)CC/C=C(\\C)CC[C@@]1(C)C(C)=CCC[C@@H]1C", 5.4),
    ("CNc1ncnc(N)c1N(C=O)C/C=C(\\C)CC[C@]1(C)[C@@H](C)CC[C@@]2(C)C(COC(=O)c3ccc[nH]3)=CCC[C@@H]12", 3.6),
]
